Attribution: patent US9670166B2

# Measurement description: Metabolic stability with human hepatocytes
# Format: in vitro ADME
# Experimental context: human hepatocyte suspension, 1 μM, scaled by well stirred model
Quick reference: CL (predicted human hepatic in vivo blood clearance) of the listed items.
Write the value in mL/min/kg as a bare number.

# Compound, Observed value
measured = [
    ("CS(=O)(=O)CCNC(=O)N1C(=O)N(c2cccc(C(F)(F)F)c2)C2=C(C(=O)CC2)C1c1ccc(C#N)cc1F (stereo not shown)", 0),
    ("CS(=O)(=O)c1cc(C#N)ccc1C1NC(=O)N(c2cccc(C(F)F)c2)C2=C1C(=O)CC2 (stereo not shown)", 0),
]

input: Given the entry CC(C)(O)CNC(=O)N1C(=O)N(c2cccc(C(F)(F)F)c2)C2=C(C(=O)CC2)[C@H]1c1ccc(C#N)cc1 [Example 41A] , report its measured CL (predicted human hepatic in vivo blood clearance).
output: 0

input: Try CC(C)(O)CCNC(=O)N1C(=O)N(c2cccc(C(F)(F)F)c2)C2=C(C(=O)CC2)C1c1ccc(C#N)cc1 (stereo not shown) next.
output: 3

====

# Test system: Caco-2 cells
# Measurement description: Drug transport across human Caco-2 cells
# Format: in vitro ADME
# Experimental context: PEBA/PEAB
Quick reference: Efflux ratio of the listed items.
// no unit, no text: just the number

The following compounds have reported results that may help.
# Compound, Assay system, Efflux ratio
records = [
    ("N#Cc1ccc(C2C3=C(CCC3=O)N(c3cccc(C(F)(F)F)c3)C(=O)N2C(=O)NC2(CO)CC2)cc1 (centres unmarked)", "Caco-2 cells", 8.7),
    ("N#Cc1ccc([C@@H]2C3=C(CCC3=O)N(c3cccc(C(F)(F)F)c3)C(=O)N2C(=O)N[C@H]2CCC[C@@H]2O)cc1", "Caco-2 cells", 2.0),
    ("N#Cc1ccc(C2C3=C(CCC3=O)N(c3cccc(C(F)(F)F)c3)C(=O)N2C(=O)N[C@H]2CCC[C@@H]2O)cc1 (some centres unmarked)", "Caco-2 cells", 2.0),
    ("CC(C)(O)CCNC(=O)N1C(=O)N(c2cccc(C(F)(F)F)c2)C2=C(C(=O)CC2)C1c1ccc(C#N)cc1 (centres unmarked)", "Caco-2 cells", 3.5),
]

input: Given the entry CNC(=O)N1C(=O)N(c2cccc(C(F)(F)F)c2)C2=C(C(=O)CC2)[C@H]1c1ccc(C#N)cc1S(C)(=O)=O , report its measured Efflux ratio.
output: 8.0

====

# Measurement description: Metabolic stability with human hepatocytes
# Assay type: in vitro ADME
# Experimental context: human hepatocyte suspension, 1 μM, scaled by well stirred model
Quick reference: CL (predicted human hepatic in vivo blood clearance) of the listed items.
Write the value in mL/min/kg as a bare number.

The following compounds have reported results that may help.
# Compound, Observed value
data = [
    ("N#Cc1ccc(C2C3=C(CCC3=O)N(c3cccc(C(F)(F)F)c3)C(=O)N2C(=O)N[C@H]2COC[C@H]2O)cc1 (stereo partly shown)", 5),
    ("N#Cc1ccc(C2C3=C(CCC3=O)N(c3cccc(C(F)(F)F)c3)C(=O)N2C(=O)NCCCO)cc1 (stereo not shown)", 7),
    ("C[C@H](CO)NC(=O)N1C(=O)N(c2cccc(C(F)(F)F)c2)C2=C(C(=O)CC2)C1c1ccc(C#N)cc1 (stereo partly shown)", 5),
    ("N#Cc1ccc(C2C3=C(CCC3=O)N(c3cccc(C(F)(F)F)c3)C(=O)N2C(=O)N[C@H]2CCC[C@@H]2O)cc1 (stereo partly shown)", 0),
    ("CNC(=O)N1C(=O)N(c2cccc(C(F)(F)F)c2)C2=C(C(=O)CC2)[C@H]1c1ccc(C#N)cc1", 3),
    ("N#Cc1ccc([C@@H]2C3=C(CCC3=O)N(c3cccc(C(F)F)c3)C(=O)N2C(=O)NCCCO)cc1 [Example 52A]", 8),
]

--- query ---
input: Given the entry CCNC(=O)N1C(=O)N(c2cccc(C(F)F)c2)C2=C(C(=O)CC2)C1c1ccc(C#N)cc1 (stereo not shown) , report its measured CL (predicted human hepatic in vivo blood clearance).
output: 3

====

# Measurement description: Metabolic stability with human hepatocytes
# Format: in vitro ADME
# Experimental context: human hepatocyte suspension, 1 μM, scaled by well stirred model
Quick reference: CL (predicted human hepatic in vivo blood clearance) of the listed items.
Write the value in mL/min/kg as a bare number.

The following compounds have reported results that may help.
# Compound, Observed value
records = [
    ("CN(C)C(=O)CN1C(=O)N(c2cccc(C(F)(F)F)c2)C2=C(C(=O)CC2)C1c1ccc(C#N)cc1 (stereo not shown)", 6),
    ("N#Cc1ccc([C@@H]2C3=C(CCC3=O)N(c3cccc(C(F)(F)F)c3)C(=O)N2C(=O)NCCO)cc1", 0),
    ("CC(C)NC(=O)N1C(=O)N(c2cccc(C(F)F)c2)C2=C(C(=O)CC2)C1c1ccc(C#N)cc1S(C)(=O)=O (stereo not shown)", 0),
]

--- query ---
input: Given the entry N#Cc1ccc([C@H]2NC(=O)N(c3cccc(C(F)(F)F)c3)C3=C2C(=O)CC3)cc1 , report its measured CL (predicted human hepatic in vivo blood clearance).
output: 6

====

# Tested on: Caco-2 cells
# Measurement description: Drug transport across human Caco-2 cells
# Assay type: in vitro ADME
# Experimental context: apical-to-basal, Caco-2 monolayers, pH 7.2, 37° C.
Quick reference: PEAB of the listed items.
Write the value in ×10⁻⁶ cm/s as a bare number.

# Compound, Observed value
rows = [
    ("CC(C)NC(=O)N1C(=O)N(c2cccc(C(F)F)c2)C2=C(C(=O)CC2)C1c1ccc(C#N)cc1S(C)(=O)=O (centres unmarked) [Example 53.4]", 9.85),
]

input: Given the entry CC(C)NC(=O)N1C(=O)N(c2cccc(C(F)(F)F)c2)C2=C(C(=O)CC2)[C@H]1c1ccc(C#N)cc1S(C)(=O)=O [Example 47.5] , report its measured PEAB.
output: 19.2

input: Try CC(C)(O)CNC(=O)N1C(=O)N(c2cccc(C(F)F)c2)C2=C(C(=O)CC2)C1c1ccc(C#N)cc1 (centres unmarked) [Example 52.5] next.
output: 4.45

input: Try CS(=O)(=O)c1cc(C#N)ccc1[C@@H]1C2=C(CCC2=O)N(c2cccc(C(F)(F)F)c2)C(=O)N1C(=O)NC1CC1 [Example 47.4] next.
output: 7.74

input: Try CCNC(=O)N1C(=O)N(c2cccc(C(F)(F)F)c2)C2=C(C(=O)CC2)[C@H]1c1ccc(C#N)cc1S(C)(=O)=O [Example 47.2] next.
output: 12.8

input: Try N#Cc1ccc([C@@H]2C3=C(CCC3=O)N(c3cccc(C(F)(F)F)c3)C(=O)N2C(=O)N[C@H]2CCC[C@@H]2O)cc1 [Example 45.4] next.
output: 38.1

input: Try N#Cc1ccc(C2C3=C(CCC3=O)N(c3cccc(C(F)(F)F)c3)C(=O)N2C(=O)N[C@@H]2CCC[C@H]2O)cc1 (some centres unmarked) [Example 42.3] next.
output: 36.2

input: Try N#Cc1ccc(C2C3=C(CCC3=O)N(c3cccc(C(F)(F)F)c3)C(=O)N2C(=O)N[C@H]2CCC[C@@H]2O)cc1 (some centres unmarked) [Example 42.4] next.
output: 39.7

input: Try CCNC(=O)N1C(=O)N(c2cccc(C(F)F)c2)C2=C(C(=O)CC2)C1c1ccc(C#N)cc1 (centres unmarked) [Example 52.2] next.
output: 70.8

input: Try CNC(=O)N1C(=O)N(c2cccc(C(F)(F)F)c2)C2=C(C(=O)CC2)[C@H]1c1ccc(C#N)cc1S(C)(=O)=O [Example 47.1] next.
output: 8.13

input: Try CNC(=O)N1C(=O)N(c2cccc(C(F)F)c2)C2=C(C(=O)CC2)C1c1ccc(C#N)cc1 (centres unmarked) [Example 52.1] next.
output: 57.1

====

# Test system: Caco-2 cells
# Measurement description: Drug transport across human Caco-2 cells
# Type: in vitro ADME
# Experimental context: PEBA/PEAB
Quick reference: Efflux ratio of the listed items.
// no unit, no text: just the number

The following compounds have reported results that may help.
# Compound, Reported endpoint, Observed value
rows = [
    ("CC(C)(O)CNC(=O)N1C(=O)N(c2cccc(C(F)F)c2)C2=C(C(=O)CC2)C1c1ccc(C#N)cc1 (stereo not shown)", "Efflux ratio", 14.1),
    ("C[C@H](CO)NC(=O)N1C(=O)N(c2cccc(C(F)(F)F)c2)C2=C(C(=O)CC2)C1c1ccc(C#N)cc1 (stereo partly shown)", "Efflux ratio", 8.7),
    ("CNC(=O)N1C(=O)N(c2cccc(C(F)F)c2)C2=C(C(=O)CC2)C1c1ccc(C#N)cc1 (stereo not shown)", "Efflux ratio", 1.0),
    ("N#Cc1ccc(C2C3=C(CCC3=O)N(c3cccc(C(F)(F)F)c3)C(=O)N2C(=O)NCCCO)cc1 (stereo not shown)", "Efflux ratio", 7.1),
    ("CCNC(=O)N1C(=O)N(c2cccc(C(F)F)c2)C2=C(C(=O)CC2)C1c1ccc(C#N)cc1 (stereo not shown)", "Efflux ratio", 1.1),
]

input: Given the entry N#Cc1ccc(C2C3=C(CCC3=O)N(c3cccc(C(F)(F)F)c3)C(=O)N2C(=O)NC2CCOCC2)cc1 (stereo not shown) , report its measured Efflux ratio.
output: 1.0

input: Try N#Cc1ccc(C2C3=C(CCC3=O)N(c3cccc(C(F)(F)F)c3)C(=O)N2C(=O)N[C@@H]2CCC[C@H]2O)cc1 (stereo partly shown) next.
output: 2.4
